The measured values listed here are drawn from patent US20210388087A1.

// values below are reported fold change of affinity
assayed system: T1, Human CD3eg linker (human)
T1 construct: Single chain: epsilon and gamma subunits of human CD3 joined by a 29-mer linker, Flag-tag at the C-terminus; also called recombinant human CD3
T1 chain: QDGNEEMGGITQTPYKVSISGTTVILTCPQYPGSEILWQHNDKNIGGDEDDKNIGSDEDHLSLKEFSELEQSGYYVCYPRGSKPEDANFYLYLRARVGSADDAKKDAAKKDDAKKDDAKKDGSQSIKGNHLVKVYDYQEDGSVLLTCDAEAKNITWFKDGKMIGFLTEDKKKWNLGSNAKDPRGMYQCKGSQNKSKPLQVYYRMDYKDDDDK
test summary: Biacore SPR, vs template H183/L072
Give just the numeric value; fold need not be written.

H183/L072 VH F27R (antibody, name in Kabat numbering, V domains shown) VH: QVQLVESGGGLVQPGRSLRLSCAASGRTFSNAWMHWVRQAPGKGLEWVAQIKDKGNAYAAYYAPSVKGRFTISRDDSKNSIYLQMNSLKTEDTAVYYCHYVHYASASTVLPAFGVDAWGQGTTVTVSS VL: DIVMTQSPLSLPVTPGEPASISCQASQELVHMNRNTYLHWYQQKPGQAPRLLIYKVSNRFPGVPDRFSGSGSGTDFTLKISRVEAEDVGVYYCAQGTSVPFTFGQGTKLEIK ... 0.2

Give me measured fold change of affinity, please, for this binder: H183/L072 VH G52cL (antibody, name in Kabat numbering, V domains shown) VH: QVQLVESGGGLVQPGRSLRLSCAASGFTFSNAWMHWVRQAPGKGLEWVAQIKDKLNAYAAYYAPSVKGRFTISRDDSKNSIYLQMNSLKTEDTAVYYCHYVHYASASTVLPAFGVDAWGQGTTVTVSS VL: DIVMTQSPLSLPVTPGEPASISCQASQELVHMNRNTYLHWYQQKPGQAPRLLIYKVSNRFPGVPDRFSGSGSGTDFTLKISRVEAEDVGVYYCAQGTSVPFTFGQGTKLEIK
1.5

Give me measured fold change of affinity, please, for this binder: H183/L072 VH P100eL (antibody, name in Kabat numbering, V domains shown) VH: QVQLVESGGGLVQPGRSLRLSCAASGFTFSNAWMHWVRQAPGKGLEWVAQIKDKGNAYAAYYAPSVKGRFTISRDDSKNSIYLQMNSLKTEDTAVYYCHYVHYASASTVLLAFGVDAWGQGTTVTVSS VL: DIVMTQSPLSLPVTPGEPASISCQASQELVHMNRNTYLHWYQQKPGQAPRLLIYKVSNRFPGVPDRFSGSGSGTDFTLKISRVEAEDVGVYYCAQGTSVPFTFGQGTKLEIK
1.3
